// data source = patent US20210070881A1

# assay.system: cellular BACE1 in CHOK1-huAPP cells
# assay.text: cell-based or functional assay
Give Max. % inhibition for every item shown.
Numbers only, in %.

| binder | Max. % inhibition, % |
| --- | --- |
| 2H8 (antibody, human IgG1, V domains shown, chimeric, human IgG1/kappa; also called Clone 2H8; 2H8.01) VH: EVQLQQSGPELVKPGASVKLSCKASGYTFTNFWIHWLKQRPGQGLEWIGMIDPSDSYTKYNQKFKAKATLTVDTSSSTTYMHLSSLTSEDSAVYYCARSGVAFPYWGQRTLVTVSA VL: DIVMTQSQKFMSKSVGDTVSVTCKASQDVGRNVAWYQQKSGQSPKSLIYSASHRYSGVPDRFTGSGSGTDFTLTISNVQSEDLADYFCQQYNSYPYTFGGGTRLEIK | 82 |
| 2H8.31 (antibody, human IgG1, V domains shown, human IgG1/kappa; also called 2H8_HC + 2H8_LCvar6) VH: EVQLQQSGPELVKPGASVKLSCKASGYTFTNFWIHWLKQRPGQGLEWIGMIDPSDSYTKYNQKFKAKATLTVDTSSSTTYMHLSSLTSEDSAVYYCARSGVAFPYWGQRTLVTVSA VL: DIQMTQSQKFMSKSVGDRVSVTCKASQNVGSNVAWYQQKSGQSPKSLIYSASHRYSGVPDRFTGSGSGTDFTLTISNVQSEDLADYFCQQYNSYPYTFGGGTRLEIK | 94 |

[in] Consider the binder shown here: 2H8.04 (antibody, human IgG1, V domains shown, human IgG1/kappa; also called 2H8_HCvar4 + 2H8_LC) VH: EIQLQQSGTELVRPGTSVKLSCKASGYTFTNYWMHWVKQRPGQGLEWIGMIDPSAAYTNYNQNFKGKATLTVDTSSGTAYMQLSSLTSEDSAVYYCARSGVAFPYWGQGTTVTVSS VL: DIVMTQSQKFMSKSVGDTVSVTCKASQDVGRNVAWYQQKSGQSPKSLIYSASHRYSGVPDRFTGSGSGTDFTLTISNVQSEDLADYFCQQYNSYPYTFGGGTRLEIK What is its recorded Max. % inhibition?
[out] 82
